Data provenance is ChEMBL document CHEMBL1158077.

Target: Cholinesterase (Equus caballus)
Sequence (P81908 whole entry): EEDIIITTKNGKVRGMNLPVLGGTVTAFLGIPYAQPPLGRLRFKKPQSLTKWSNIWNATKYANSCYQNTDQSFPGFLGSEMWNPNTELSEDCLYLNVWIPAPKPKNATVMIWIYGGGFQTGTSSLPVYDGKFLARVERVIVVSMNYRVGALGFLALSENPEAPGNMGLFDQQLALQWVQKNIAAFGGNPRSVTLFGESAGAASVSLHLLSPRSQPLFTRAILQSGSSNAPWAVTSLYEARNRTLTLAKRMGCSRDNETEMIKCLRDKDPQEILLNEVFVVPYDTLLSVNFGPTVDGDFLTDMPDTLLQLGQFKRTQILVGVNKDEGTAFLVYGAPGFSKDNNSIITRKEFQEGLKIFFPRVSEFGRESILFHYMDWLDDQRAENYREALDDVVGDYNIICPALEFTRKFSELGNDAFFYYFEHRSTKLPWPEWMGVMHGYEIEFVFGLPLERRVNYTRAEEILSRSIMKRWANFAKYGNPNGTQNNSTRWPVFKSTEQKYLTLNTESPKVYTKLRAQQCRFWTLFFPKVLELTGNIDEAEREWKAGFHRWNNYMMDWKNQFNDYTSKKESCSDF
Assay: Inhibition of horse serum BuChE by Ellman's method
// boundary case: IC50 equal to 200 µM maps to 0; strictly smaller maps to 1

Inquiry: Hello, is IC50 of the following compound strictly smaller than 200 µM? CC1(C)C[C@@H]2[C@@H](CO)CC[C@H]3O[C@]3(C)CC[C@H]21
Reply text: 1

Inquiry: Hello, is IC50 of the following compound strictly smaller than 200 µM? C=C1CC[C@@H]2O[C@]2(C)CC[C@@H]2[C@@H]1CC2(C)C
Reply text: 0

Inquiry: Hello, is IC50 of the following compound strictly smaller than 200 µM? CC1(C)C[C@H](O)[C@]23CC[C@@H](O)[C@](C)(CC[C@@H]12)C3
Reply text: 0

Inquiry: Hello, is IC50 of the following compound strictly smaller than 200 µM? CC1(C)C[C@H](O)[C@]23CC[C@@H](O)[C@](CO)(CC[C@@H]12)C3
Reply text: 1

Inquiry: Hello, is IC50 of the following compound strictly smaller than 200 µM? C=C1CC[C@H]2O[C@]2(C)CC[C@@H]2[C@@H]1C[C@@]2(C)CO
Reply text: 1

Inquiry: Hello, is IC50 of the following compound strictly smaller than 200 µM? CC1(C)C[C@@H]2[C@@H](CO)CC[C@H]3O[C@]3(C)[C@H](O)C[C@H]21
Reply text: 1

Inquiry: Hello, is IC50 of the following compound strictly smaller than 200 µM? C=C1CC[C@@H](O)[C@](C)(O)CC[C@@H]2[C@@H]1CC2(C)C
Reply text: 1

Inquiry: Hello, is IC50 of the following compound strictly smaller than 200 µM? CC1(C)C[C@@H]2C(=O)CC[C@H]3O[C@]3(C)C[C@H](O)[C@H]21
Reply text: 0

Inquiry: Hello, is IC50 of the following compound strictly smaller than 200 µM? C=C1CC[C@H]2O[C@]2(C)CC[C@@H]2[C@@H]1C[C@]2(C)CO
Reply text: 1

Inquiry: Hello, is IC50 of the following compound strictly smaller than 200 µM? CC1(C)C[C@H]2[C@H]1CC[C@]1(C)[C@H](O)CC[C@@]2(O)[C@H]1O
Reply text: 1
